# system.name: human vasopressin V1a receptor subtype (Homo sapiens)
# Construct: host or cells: CHO cells, stably transfected (pZeoSV vector for the Thibonnier line)
# Sequence (P37288 whole entry): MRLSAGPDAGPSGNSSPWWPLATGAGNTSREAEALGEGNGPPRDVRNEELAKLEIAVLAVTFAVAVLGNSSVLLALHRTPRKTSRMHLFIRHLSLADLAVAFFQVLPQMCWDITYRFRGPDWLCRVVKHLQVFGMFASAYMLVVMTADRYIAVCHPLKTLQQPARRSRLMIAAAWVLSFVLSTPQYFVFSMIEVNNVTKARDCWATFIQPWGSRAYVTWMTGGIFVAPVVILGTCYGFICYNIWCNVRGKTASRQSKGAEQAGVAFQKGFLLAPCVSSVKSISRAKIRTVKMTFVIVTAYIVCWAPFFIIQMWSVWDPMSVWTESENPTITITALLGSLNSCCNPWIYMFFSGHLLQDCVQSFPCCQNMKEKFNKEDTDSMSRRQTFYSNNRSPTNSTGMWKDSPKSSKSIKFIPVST
# assay.remarks: Vasopressin binding in CHO cell membranes expressing human vasopressin V1a subtype receptors ([3H]Manning ligand radioligand binding)
# condition.info: 100 nM
Catalogue of inhibition at 0.1 µM readings, one per entry.
Kindly answer with a numeric value in %, unit omitted.

COc1cc(C(=O)N2Cc3ccc(C(=O)N(C)CCc4ccccn4)n3Cc3ccccc32)ccc1-c1ccccc1C [Example 69]	72
COc1cc(-c2ccccc2C)c(Cl)cc1C(=O)N1Cc2ccc(C(=O)NCCc3ccccn3)n2Cc2ccccc21 [Example 55]	-7
COc1cc(C(=O)N2Cc3ccc(C(=O)N4CCN(c5ccncc5)CC4)n3Cc3ccccc32)ccc1-n1c(C)ccc1C [Example 146]	11

--- query ---
Lookup: What value of measured inhibition at 0.1 µM is listed for COc1ccccc1-c1ccc(C(=O)N2Cc3ccc(C(=O)N(C)CCc4ccncc4)n3Cc3ccccc32)cc1C [Example 126] ?
Found: 38

====

Reported inhibition at 0.1 µM values for a set of molecules
# system.name: human vasopressin V2 receptor subtype (Homo sapiens)
# Construct: host or cells: CHO cells, stably transfected (pZeoSV vector)
# Sequence (P30518 whole entry): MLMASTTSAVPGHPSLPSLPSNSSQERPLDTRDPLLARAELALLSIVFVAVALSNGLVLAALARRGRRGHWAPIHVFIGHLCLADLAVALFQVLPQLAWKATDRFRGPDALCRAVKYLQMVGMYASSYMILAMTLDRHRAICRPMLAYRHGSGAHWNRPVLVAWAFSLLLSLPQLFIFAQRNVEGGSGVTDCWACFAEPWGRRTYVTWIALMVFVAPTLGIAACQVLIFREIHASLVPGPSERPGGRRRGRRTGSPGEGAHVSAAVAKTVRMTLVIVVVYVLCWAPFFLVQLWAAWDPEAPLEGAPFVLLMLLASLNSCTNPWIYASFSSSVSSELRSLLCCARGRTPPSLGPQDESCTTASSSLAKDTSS
# assay.remarks: Vasopressin binding in CHO cell membranes expressing human vasopressin V2 subtype receptors ([3H]arginine vasopressin radioligand binding)
# condition.info: 100 nM
Use % as the unit, but write only the number.

COc1cc(C(=O)N2Cc3ccc(C(=O)N(C)CCc4ccncc4)n3Cc3ccccc32)ccc1-c1cccc2ccccc12 [Example 134]	1
O=C(NCc1cccnc1)c1ccc2n1Cc1ccccc1N(C(=O)c1ccc(-c3cccc4ccccc34)cc1Cl)C2 [Example 47]	6
COc1cc(C(=O)N2Cc3ccc(C(=O)NCCc4ccccn4)n3Cc3ccccc32)ccc1-c1ccccc1C [Example 54]	18
COc1cccc(-c2cc(OC)c(C(=O)N3Cc4ccc(C(=O)N(C)CCc5ccccn5)n4Cc4ccccc43)cc2Cl)c1 [Example 70]	10
Cc1ccccc1-c1ccc(C(=O)N2Cc3ccc(C(=O)NCCc4ccccn4)n3Cc3ccccc32)cc1 [Example 53]	13
Cc1ccccc1-c1ccc(C(=O)N2Cc3ccc(C(=O)N4CCN(c5ccccn5)CC4)n3Cc3ccccc32)cc1C [Example 76]	21

Lookup: Given the entry COc1ccccc1-c1ccc(C(=O)N2Cc3ccc(C(=O)NCc4cccnc4)n3Cc3ccccc32)cc1 [Example 39] , report its measured inhibition at 0.1 µM.
Found: 11

Lookup: Give its inhibition at 0.1 µM value. Item: COc1ccccc1-c1ccc(C(=O)N2Cc3ccc(C(=O)NCc4ccccn4)n3Cc3ccccc32)cc1OC [Example 32]
Found: 21

====

Reported inhibition at 0.1 µM values for a set of compounds
# system.name: human oxytocin receptor (Homo sapiens, UniProt P30559)
# Construct: host or cells: CHO cells, stably transfected (pcDNA3.1 vector)
# assay.remarks: Oxytocin binding in CHO cell membranes expressing human oxytocin receptors ([3H]oxytocin radioligand binding)
# condition.info: 100 nM, read-out: OT % inhibition @ 100 nM
Respond numerically; units are % and should not be typed.

Use the examples below as a reference point.
COc1cc(C(=O)N2Cc3ccc(C(=O)NCc4cccnc4)n3Cc3ccccc32)ccc1-c1cccc2ccccc12 [Example 44]	22
COc1cccc(-c2ccc(C(=O)N3Cc4ccc(C(=O)N5CCN(c6ccncc6)CC5)n4Cc4ccccc43)cc2OC)c1 [Example 123]	95
COc1cccc(-c2ccc(C(=O)N3Cc4ccc(C(=O)N(C)CCc5ccncc5)n4Cc4ccccc43)cc2OC)c1 [Example 135]	96

Kindly consider the entry below.
Lookup: # lookup: inhibition at 0.1 µM of COc1cc(C(=O)N2Cc3ccc(C(=O)N4CCN(c5ccncc5)CC4)n3Cc3ccccc32)ccc1-c1cccc2ccccc12 [Example 121]
Found: 57

====

# system.name: human oxytocin receptor (Homo sapiens)
# Construct: host or cells: CHO cells, stably transfected (pcDNA3.1 vector)
# Sequence (P30559 1-389): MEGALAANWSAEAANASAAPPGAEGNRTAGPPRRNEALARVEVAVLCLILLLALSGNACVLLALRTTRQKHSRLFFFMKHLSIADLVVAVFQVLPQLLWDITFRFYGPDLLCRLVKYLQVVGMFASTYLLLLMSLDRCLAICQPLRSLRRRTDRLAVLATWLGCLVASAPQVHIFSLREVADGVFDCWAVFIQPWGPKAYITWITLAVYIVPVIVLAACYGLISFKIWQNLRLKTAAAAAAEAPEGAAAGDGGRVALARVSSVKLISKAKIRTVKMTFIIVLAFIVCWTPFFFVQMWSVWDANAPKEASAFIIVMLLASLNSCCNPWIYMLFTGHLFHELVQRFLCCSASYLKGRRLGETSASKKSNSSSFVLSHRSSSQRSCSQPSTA
# assay.remarks: Oxytocin binding in CHO cell membranes expressing human oxytocin receptors ([3H]oxytocin radioligand binding)
# condition.info: 100 nM, read-out: OT % inhibition @ 100 nM
Quick reference: inhibition at 0.1 µM of the listed items.
Please state the figure in %; there is no need to write the unit.

// below: answered compounds
COc1ccccc1-c1ccc(C(=O)N2Cc3ccc(C(=O)N4CCCCC4c4cccnc4)n3Cc3ccccc32)cc1C (stereo not shown)	97
O=C(NCc1cccnc1)c1ccc2n1Cc1ccccc1N(C(=O)c1ccc(-c3cccc4ccccc34)cc1Cl)C2	1
COc1ccccc1-c1ccc(C(=O)N2Cc3ccc(C(=O)N(C)CCc4ccccn4)n3Cc3ccccc32)cc1C	95
CN(Cc1cccnc1)C(=O)c1ccc2n1Cc1ccccc1N(C(=O)c1ccc(-c3cccc4ccccc34)cc1Cl)C2	36
COc1ccccc1-c1ccc(C(=O)N2Cc3ccc(C(=O)N4CCN(c5ccccn5)CC4)n3Cc3ccccc32)cc1OC	46

Lookup: Request: inhibition at 0.1 µM, test system human oxytocin receptor (Homo sapiens), entry `COc1cccc(-c2cc(OC)c(C(=O)N3Cc4ccc(C(=O)N(C)CCc5ccccn5)n4Cc4ccccc43)cc2Cl)c1`
Found: 77

Lookup: Can you look up inhibition at 0.1 µM on human oxytocin receptor (Homo sapiens) for `COc1cc(C(=O)N2Cc3ccc(C(=O)N(C)Cc4cccnc4)n3Cc3ccccc32)ccc1-c1ccccc1C` ?
Found: 98

====

# system.name: human vasopressin V2 receptor subtype (Homo sapiens)
# Construct: host or cells: CHO cells, stably transfected (pZeoSV vector)
# assay.remarks: Vasopressin binding in CHO cell membranes expressing human vasopressin V2 subtype receptors ([3H]arginine vasopressin radioligand binding)
# condition.info: 100 nM
// values below are reported inhibition at 0.1 µM
Give the value in % but do not write % after it.

Lookup: Please report the recorded inhibition at 0.1 µM for `Cc1cc(C(=O)N2Cc3ccc(C(=O)NCc4ccccn4)n3Cc3ccccc32)ccc1-c1ccccc1C(F)(F)F` .
Found: 14

Lookup: Reported inhibition at 0.1 µM, compound `COc1ccccc1-c1ccc(C(=O)N2Cc3ccc(C(=O)N4CCN(c5ccncc5)CC4)n3Cc3ccccc32)cc1OC` : ____
Found: -10

Lookup: Reported inhibition at 0.1 µM for COc1ccccc1-c1ccc(C(=O)N2Cc3ccc(C(=O)N4CCCCC4c4cccnc4)n3Cc3ccccc32)cc1 (stereo not shown) : what is it?
Found: 34

Lookup: I have this compound here, `COc1cccc(-c2ccc(C(=O)N3Cc4ccc(C(=O)N5CCN(c6ccccn6)CC5)n4Cc4ccccc43)cc2OC)c1` , and I need its recorded inhibition at 0.1 µM.
Found: 5

====

# system.name: human oxytocin receptor (Homo sapiens)
# Construct: host or cells: CHO cells, stably transfected (pcDNA3.1 vector)
# Sequence (P30559 1-389): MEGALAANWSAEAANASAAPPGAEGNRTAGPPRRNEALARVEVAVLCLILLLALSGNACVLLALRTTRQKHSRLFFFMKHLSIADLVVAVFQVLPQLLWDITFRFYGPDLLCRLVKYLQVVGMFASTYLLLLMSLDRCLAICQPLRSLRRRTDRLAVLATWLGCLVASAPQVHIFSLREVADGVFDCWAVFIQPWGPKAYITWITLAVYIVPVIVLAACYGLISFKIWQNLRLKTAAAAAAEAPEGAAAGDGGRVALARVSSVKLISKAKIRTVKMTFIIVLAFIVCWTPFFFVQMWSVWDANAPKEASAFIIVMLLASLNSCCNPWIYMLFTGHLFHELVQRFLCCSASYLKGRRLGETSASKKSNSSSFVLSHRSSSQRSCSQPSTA
# assay.remarks: Oxytocin binding in CHO cell membranes expressing human oxytocin receptors ([3H]oxytocin radioligand binding)
# condition.info: 100 nM
measurement.label: OT % inhibition @ 100 nM (%)
Numbers only; they are read as %.

COc1cccc(-c2ccc(C(=O)N3Cc4ccc(C(=O)N(C)Cc5cccnc5)n4Cc4ccccc43)cc2OC)c1	94
COc1cc(C(=O)N2Cc3ccc(C(=O)N4CCN(c5ccccn5)CC4)n3Cc3ccccc32)ccc1-c1cccc2ccccc12	30
Cc1cc(C(=O)N2Cc3ccc(C(=O)NCCc4ccccn4)n3Cc3ccccc32)ccc1-c1ccccc1C(F)(F)F	26
COc1cc(C(=O)N2Cc3ccc(C(=O)N4CCN(c5ccncc5)CC4)n3Cc3ccccc32)ccc1-c1ccccc1C	83

Now consider a different compound.
Lookup: Find the recorded OT % inhibition @ 100 nM belonging to `COc1cccc(-c2ccc(C(=O)N3Cc4ccc(C(=O)NCc5ccncc5)n4Cc4ccccc43)cc2OC)c1` and report it.
Found: 39

From: patent US7064120B2
